Answer each item with its documented Kd.
Target: TRAF7-pY275mod
Experiment: fluorescence polarization
Number only, in nM; omit the unit.

// field: Kd; key: K2E T8V S10A K15I (designed binder) MKIEEHHHHHHSSGRENLYFQGGAAQPAAPVDSIQAEEWYFGKLGREDAERQLLSFGNPRGTFLIRESETVKGAYALSIRDWDDMKGDHVKHYIIRKLDNGGYYITTRAQFETLQQLVQHYSERAAGLSSRLVVPSHKGAAA ; value = 990

Recorded result, S10A (designed binder) MKIEEHHHHHHSSGRENLYFQGGAAQPAAPVDSIQAEEWYFGKLGRKDAERQLLSFGNPRGTFLIRESETTKGAYALSIRDWDDMKGDHVKHYKIRKLDNGGYYITTRAQFETLQQLVQHYSERAAGLSSRLVVPSHKGAAA , Kd: 1300
